- experimentalTarget: NIH-3T3 cells overexpressing human IR (Homo sapiens, UniProt P06213)
- Sequence (P06213 28-1382): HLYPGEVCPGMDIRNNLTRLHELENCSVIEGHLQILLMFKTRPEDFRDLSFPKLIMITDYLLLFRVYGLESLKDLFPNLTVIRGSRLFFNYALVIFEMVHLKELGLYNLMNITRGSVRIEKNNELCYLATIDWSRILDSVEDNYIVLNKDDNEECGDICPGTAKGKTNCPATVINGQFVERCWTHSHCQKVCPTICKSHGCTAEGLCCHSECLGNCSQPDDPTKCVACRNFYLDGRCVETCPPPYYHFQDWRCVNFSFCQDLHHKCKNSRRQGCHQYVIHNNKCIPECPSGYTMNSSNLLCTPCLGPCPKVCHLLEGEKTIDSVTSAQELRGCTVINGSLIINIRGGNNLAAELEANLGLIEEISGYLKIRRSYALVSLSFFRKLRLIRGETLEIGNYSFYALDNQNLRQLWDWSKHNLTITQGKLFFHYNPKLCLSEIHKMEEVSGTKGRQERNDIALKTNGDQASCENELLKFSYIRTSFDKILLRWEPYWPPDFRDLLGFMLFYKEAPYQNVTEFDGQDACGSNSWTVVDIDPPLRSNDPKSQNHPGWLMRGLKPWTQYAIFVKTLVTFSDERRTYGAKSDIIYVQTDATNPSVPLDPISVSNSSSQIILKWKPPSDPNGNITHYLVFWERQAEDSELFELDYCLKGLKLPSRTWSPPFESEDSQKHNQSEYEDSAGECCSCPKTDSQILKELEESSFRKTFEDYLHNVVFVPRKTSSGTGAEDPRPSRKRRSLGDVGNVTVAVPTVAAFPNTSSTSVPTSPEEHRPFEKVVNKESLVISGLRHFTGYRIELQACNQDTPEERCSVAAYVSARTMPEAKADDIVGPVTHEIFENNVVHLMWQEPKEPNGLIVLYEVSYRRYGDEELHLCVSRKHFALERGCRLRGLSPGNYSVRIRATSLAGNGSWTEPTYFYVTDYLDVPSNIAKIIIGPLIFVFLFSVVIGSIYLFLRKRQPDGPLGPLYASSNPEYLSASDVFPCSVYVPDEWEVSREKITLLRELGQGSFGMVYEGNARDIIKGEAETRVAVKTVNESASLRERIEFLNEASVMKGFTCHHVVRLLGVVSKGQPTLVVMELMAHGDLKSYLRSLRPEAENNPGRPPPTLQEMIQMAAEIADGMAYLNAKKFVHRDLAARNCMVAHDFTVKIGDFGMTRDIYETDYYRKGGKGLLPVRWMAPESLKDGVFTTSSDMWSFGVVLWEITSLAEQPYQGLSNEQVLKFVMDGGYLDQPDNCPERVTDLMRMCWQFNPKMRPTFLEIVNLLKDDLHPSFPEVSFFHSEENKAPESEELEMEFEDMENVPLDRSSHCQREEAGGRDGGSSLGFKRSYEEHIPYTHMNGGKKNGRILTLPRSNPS
- assaySummary: IR cellular autophosphorylation (DELFIA)
- experimentalSetup: 2 h compound, insulin 3 ug/ml for 15 minutes, IC50 category
- Procedure: NIH-3T3 cells overexpressing human IGF-1R or IR were plated in 96-well plates (10,000 cells/well) in culture media containing 10% fetal bovine serum and incubated at 37° C. in a 5% CO2 incubator. Twenty four hours post-plating, cells were treated with different concentrations of test compounds ranging from 30 uM to 1.5 nM. […] The fluorescence signal for cells treated with compounds was expressed as percent relative to 100% stimulation (IGF-1 or insulin stimulated signal).
pIC50: −log10 of the molar value.
reportedMetric: pIC50

Task item: GET /values?readout=pIC50&system=NIH-3T3 cells overexpressing human IR (Homo sapiens, UniProt P06213)&item= COc1cc2c(cc1Nc1nc(Nc3cccc(F)c3C(N)=O)c3cc[nH]c3n1)N(C(=O)CN(C)OC)CC2
Reply: < 6.30

Task item: What pIC50 appears in the records for this compound with NIH-3T3 cells overexpressing human IR (Homo sapiens, UniProt P06213)? COc1cc2c(cc1Nc1nc(Nc3ccc(F)c(F)c3C(=O)NC(C)C)c3cc[nH]c3n1)N(C(=O)CN(C)C)CC2
Reply: < 6.30

Task item: # returns recorded pIC50 (system: NIH-3T3 cells overexpressing human IR (Homo sapiens, UniProt P06213)) for CCc1cc(N2CCN(C(C)C)CC2)ccc1Nc1nc(Nc2cc(F)ccc2C(N)=O)c2cc[nH]c2n1
Reply: 6.30 to 7.00

// each compound listed below needs its pIC50
1. CCCN1CCC(c2ccc(Nc3nc(Nc4cc(F)c(F)cc4C(N)=O)c4cc[nH]c4n3)c(OC)c2)CC1
2. COc1cc2c(cc1Nc1nc(Nc3cccc(F)c3C(N)=O)c3cc[nH]c3n1)NCCC2
3. COc1cc(N2CCOC[C@@H]2C)ccc1Nc1nc(Nc2cccc(F)c2C(N)=O)c2cc[nH]c2n1
4. Cc1ccc(NC(=O)CN(C)C)cc1Nc1nc(Nc2ccccc2C(=O)NCc2ccc(F)cc2)c2cc[nH]c2n1
5. COc1cc2c(cc1Nc1nc(Nc3ccc(F)c(F)c3C(N)=O)c3cc[nH]c3n1)N(C(=O)CN(C)C)CCC2
6. COc1cc2c(cc1Nc1nc(Nc3cccc(F)c3C(N)=O)c3cc[nH]c3n1)N(C(=O)CN(C)C)CCC2
7. CCCN1CCC=C(c2ccc(Nc3nc(Nc4cc(Cl)ccc4C(N)=O)c4cc[nH]c4n3)c(OC)c2)C1
8. COc1cc(C2CCN(C(C)C)CC2)ccc1Nc1nc(Nc2cc(F)c(F)cc2C(N)=O)c2cc[nH]c2n1

Reply:
1. > 7.00
2. < 6.30
3. 6.30 to 7.00
4. < 6.30
5. > 7.00
6. > 7.00
7. < 6.30
8. > 7.00

---

Would you mind telling me the reported IC50 of each entry?
- experimentalTarget: human IGF1R (hIGF1R) (Homo sapiens)
- Construct: containing amino acid residues 957-1367 of human IGF1R; made in house; host or cells: Sf9 cells (baculovirus)
- Sequence (P08069 957-1367): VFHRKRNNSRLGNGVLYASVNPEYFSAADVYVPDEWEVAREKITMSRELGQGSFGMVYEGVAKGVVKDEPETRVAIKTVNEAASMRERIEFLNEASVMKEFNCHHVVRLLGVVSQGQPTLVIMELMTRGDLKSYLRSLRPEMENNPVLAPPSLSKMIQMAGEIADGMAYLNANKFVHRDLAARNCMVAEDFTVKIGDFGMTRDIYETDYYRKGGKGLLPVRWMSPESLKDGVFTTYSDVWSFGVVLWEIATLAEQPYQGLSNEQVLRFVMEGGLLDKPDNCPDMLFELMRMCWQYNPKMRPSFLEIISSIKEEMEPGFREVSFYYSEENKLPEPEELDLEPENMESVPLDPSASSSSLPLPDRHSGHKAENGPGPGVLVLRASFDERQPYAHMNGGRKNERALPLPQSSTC
- assaySummary: TR-FRET kinase assay of purified hIGF1R
- Type: biochemical
- experimentalSetup: activated hIGF1R 0.5 nM, 10 μM ATP, values given as pIC50 category, read-out: IGF-1R pIC50 (converted)

Task item: Fill in: IC50 of COc1cc2c(cc1Nc1nc(Nc3cccc(F)c3C(N)=O)c3cc[nH]c3n1)N(C(=O)CCN(C)C)CCC2 [Example 214] is ___
Reply: 5.01 to 200 nM

For every item below, please supply its IC50.
1. COc1cc2c(cc1Nc1nc(Nc3cc(Cl)cc(F)c3C(N)=O)c3cc[nH]c3n1)N(C(=O)CN(C)C)CC2 [Example 119]
2. COc1cc2c(cc1Nc1nc(Nc3cccc4c3C(=O)NC4)c3cc[nH]c3n1)N(C(=O)CN1CCCC1)CCC2 [Example 201]
3. CCCN1CCC=C(c2ccc(Nc3nc(Nc4cccc(F)c4C(N)=O)c4cc[nH]c4n3)c(OC)c2)C1 [Example 41]
4. CNC(=O)c1c(F)cccc1Nc1nc(Nc2cc3c(cc2OC)C[C@H](C)N3C(=O)CN(C)C)nc2[nH]ccc12 [Example 251]

Reply:
1. 0.251 to 1 nM
2. 0.251 to 1 nM
3. 1.26 to 3.98 nM
4. 1.26 to 3.98 nM
